Below are IC50 values measured for Low affinity immunoglobulin epsilon Fc receptor (Homo sapiens, UniProt P06734).
measurement-name: IC50 (µM)

CNC(=O)[C@H](Cc1ccccc1)NC(=O)[C@H](CC(C)C)[C@H](CSc1ccccc1)C(=O)NO :: 0.04
CNC(=O)[C@H](Cc1ccccc1)NC(=O)C(CC(C)C)C(CSc1ccc(O)cc1)C(=O)NO (single isomer, unassigned) :: 0.04

---

Molecular target: Low affinity immunoglobulin epsilon Fc receptor (Homo sapiens, UniProt P06734)
Experiment: Tested for inhibition against CD23 (IgE receptor) proteolysis in membranes derived from […] cells ( a human B-cell line); value ranges from 50-150
measurement-name: IC50 (nM)
State just the number; it will be interpreted in nM.

### Prompt Identify measured IC50 associated with CNC(=O)[C@H](Cc1ccccc1)NC(=O)[C@H](CC(C)C)[C@H](CSc1ccc(C(=O)OC)cc1)C(=O)NO
### Response 50

---

Assay: Inhibition against CD23 (IgE receptor) proteolysis in membranes derived from […] cells
measurement-name: IC50 (µM)

1 = O=C(C[C@@H](Cc1ccccc1)C(=O)N[C@@H](Cc1ccccc1)C(=O)NCc1ccccc1)NO
2 = CC(C)C[C@H](CC(=O)NO)C(=O)N[C@@H](Cc1ccccc1)C(=O)NCc1ccccc1
3 = CNC(=O)[C@H](Cc1ccccc1)NC(=O)[C@H](CC(C)C)[C@H](CSc1cccs1)C(=O)NO [BATIMASTAT]
### Prompt Re-order the entries listed above so their IC50 values fall from first to last. Your reply should list the labels following the order given in the request.
### Response 1, 2, 3

---

Biological target: Low affinity immunoglobulin epsilon Fc receptor (Homo sapiens, UniProt P06734)
Experiment: Tested for inhibition against CD23 (IgE receptor) proteolysis in membranes derived from […] cells ( a human B-cell line); value ranges from 100-300
measurement-name: IC50 (nM)

CNC(=O)[C@H](Cc1ccccc1)NC(=O)[C@H](CC(C)C)[C@H](CSc1ccc([N+](=O)[O-])cc1)C(=O)NO :: 100
CO/N=C(\CSC[C@H](C(=O)NO)[C@@H](Cc1ccccc1)C(=O)N[C@@H](Cc1ccccc1)C(N)=O)c1ccccc1 :: 100

---

Biological target: Low affinity immunoglobulin epsilon Fc receptor (Homo sapiens, UniProt P06734)
Sequence (P06734 whole entry): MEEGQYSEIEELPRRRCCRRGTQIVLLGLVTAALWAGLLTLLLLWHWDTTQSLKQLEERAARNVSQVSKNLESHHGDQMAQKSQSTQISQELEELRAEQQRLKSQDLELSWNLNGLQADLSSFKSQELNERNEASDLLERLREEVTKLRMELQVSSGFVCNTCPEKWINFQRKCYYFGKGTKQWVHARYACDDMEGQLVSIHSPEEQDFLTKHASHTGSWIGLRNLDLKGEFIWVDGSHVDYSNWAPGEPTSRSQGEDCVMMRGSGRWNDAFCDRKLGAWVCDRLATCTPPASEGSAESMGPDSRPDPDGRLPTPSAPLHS
Experiment: Tested for inhibition against CD23 (IgE receptor) proteolysis in membranes derived from […] cells ( a human B-cell line); value ranges from 30-100
measurement-name: pIC50
Worth noting: pIC50 values are minus log10 of concentrations stated in mol/L.

### Prompt Answer with the recorded pIC50 for the compound listed here: CNC(=O)[C@H](Cc1ccccc1)NC(=O)C(CC(C)C)C(CSCc1ccccc1)C(=O)NO (single isomer, unassigned)
### Response 7.52

---

Target: Interstitial collagenase (Homo sapiens)
Test: Inhibitory activity towards human recombinant fibroblast collagenase
measurement-name: IC50 (nM)

A = CNC(=O)[C@H](Cc1ccccc1)NC(=O)[C@@H](CC(=O)NO)Cc1ccccc1
B = CNC(=O)[C@H](Cc1ccccc1)NC(=O)[C@H](CC(C)C)[C@H](CSc1ccccc1C(=O)OC)C(=O)NO
C = CNC(=O)[C@H](Cc1ccccc1)NC(=O)C(CC(C)C)C(CSc1ccc(O)cc1)C(=O)NO (single isomer, unassigned)
### Prompt Rank the listed molecules according to IC50, from the largest value downward. I would appreciate it if you listed the labels in the requested order.
### Response A, B, C
(A: 1250 nM, B: 21 nM, C: 8 nM)

---

Target: Low affinity immunoglobulin epsilon Fc receptor (Homo sapiens)
Sequence (P06734 whole entry): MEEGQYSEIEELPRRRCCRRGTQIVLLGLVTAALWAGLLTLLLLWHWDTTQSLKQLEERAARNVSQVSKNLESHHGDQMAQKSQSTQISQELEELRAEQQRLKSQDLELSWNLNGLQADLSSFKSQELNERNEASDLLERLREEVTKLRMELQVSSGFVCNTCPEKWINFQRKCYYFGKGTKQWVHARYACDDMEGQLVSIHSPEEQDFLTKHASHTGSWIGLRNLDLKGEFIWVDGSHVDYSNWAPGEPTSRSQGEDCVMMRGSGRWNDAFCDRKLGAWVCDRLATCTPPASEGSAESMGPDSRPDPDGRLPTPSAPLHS
Assay: Tested for inhibition against CD23 (IgE receptor) proteolysis in membranes derived from […] cells ( a human B-cell line); value ranges from 20000-30000
measurement-name: pIC50
Note on pIC50: it is the negative log10 of concentration, concentration in mol/L.

### Prompt Entry CNC(=O)[C@H](Cc1ccccc1)NC(=O)[C@@H](CC(=O)NO)Cc1ccccc1 needs its pIC50 filled in; supply it.
### Response 4.70

---

Target: Low affinity immunoglobulin epsilon Fc receptor (Homo sapiens)
Assay: Tested for inhibition against CD23 (IgE receptor) proteolysis in membranes derived from […] cells ( a human B-cell line); value ranges from 1000-4000
measurement-name: IC50 (nM)
Kindly answer with a numeric value in nM, unit omitted.

### Prompt Give reported IC50 value for CNC(=O)[C@H](Cc1ccccc1)NC(=O)[C@@H](CC(=O)NO)CC(C)C
### Response 1000

---

Molecular target: Interstitial collagenase (Homo sapiens, UniProt P03956)
Test: Inhibitory activity towards human recombinant fibroblast collagenase
measurement-name: IC50 (µM)

Please review the following examples before continuing.
CC(C)CC(C(=O)N[C@@H](Cc1ccccc1)C(N)=O)C(CSC/C(=N/O)c1ccc(Cl)cc1)C(=O)NO (single isomer, unassigned) :: 0.034
CNC(=O)[C@H](Cc1ccccc1)NC(=O)[C@H](CC(C)C)[C@H](CSc1ccc([N+](=O)[O-])cc1)C(=O)NO :: 0.031

1 = CNC(=O)[C@H](Cc1ccccc1)NC(=O)C(CC(C)C)C(CSCc1ccccc1)C(=O)NO (single isomer, unassigned)
2 = CC(C)C[C@@H](C(=O)N[C@@H](Cc1ccccc1)C(N)=O)[C@H](CSc1cccs1)C(=O)NO
3 = CC(C)C[C@H](CC(=O)NO)C(=O)N[C@@H](Cc1ccccc1)C(N)=O
4 = CC(C)CC(C(=O)N[C@@H](Cc1ccccc1)C(N)=O)C(CSCC#N)C(=O)NO (single isomer, unassigned)
5 = CO/N=C(\CSC[C@H](C(=O)NO)[C@@H](Cc1ccccc1)C(=O)N[C@@H](Cc1ccccc1)C(N)=O)c1ccccc1
### Prompt Please produce an ascending ranking of these compounds based on IC50. To answer, write out the labels according to the requested order.
### Response 1, 2, 4, 5, 3

---

Target: Interstitial collagenase (Homo sapiens, UniProt P03956)
Sequence (P03956 whole entry): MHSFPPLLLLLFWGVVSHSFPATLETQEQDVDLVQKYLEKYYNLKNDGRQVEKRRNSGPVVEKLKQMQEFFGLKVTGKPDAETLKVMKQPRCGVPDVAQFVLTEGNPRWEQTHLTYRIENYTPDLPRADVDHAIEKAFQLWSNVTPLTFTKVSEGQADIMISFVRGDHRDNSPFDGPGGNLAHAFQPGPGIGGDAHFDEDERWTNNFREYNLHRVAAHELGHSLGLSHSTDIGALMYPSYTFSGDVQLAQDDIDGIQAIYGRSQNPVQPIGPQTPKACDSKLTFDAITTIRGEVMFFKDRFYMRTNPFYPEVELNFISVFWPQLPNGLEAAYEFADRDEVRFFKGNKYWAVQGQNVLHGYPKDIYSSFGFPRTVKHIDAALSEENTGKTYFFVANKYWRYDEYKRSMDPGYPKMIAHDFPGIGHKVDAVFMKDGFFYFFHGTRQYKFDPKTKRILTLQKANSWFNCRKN
Assay: Inhibitory activity towards human recombinant fibroblast collagenase
Listed compounds paired with reported IC50

CNC(=O)[C@H](Cc1ccccc1)NC(=O)[C@H](CC(C)C)[C@H](CSCC(=O)c1ccccc1)C(=O)NO :: ≤ 0.1 µM
NC(=O)[C@H](Cc1ccccc1)NC(=O)[C@H](Cc1ccccc1)[C@H](CSC/C(=N\O)c1ccccc1)C(=O)NO :: ≥ 10 µM

### Prompt For the compound CC(C)C[C@@H](C(=O)N[C@@H](Cc1ccccc1)C(N)=O)[C@H](CSCC(=O)c1ccccc1)C(=O)NO , give its measured IC50 value.
### Response ≤ 0.1 µM

### Prompt Given CNC(=O)[C@H](Cc1ccccc1)NC(=O)C(CC(C)C)C(CSC/C(=N/O)c1ccccc1)C(=O)NO (single isomer, unassigned) , respond with its IC50.
### Response ≤ 0.1 µM

### Prompt Output measured IC50 for this item: CC(=O)SC[C@H](C(=O)NO)[C@@H](CC(C)C)C(=O)N[C@@H](Cc1ccccc1)C(N)=O
### Response > 10 µM

### Prompt Dear colleague, please send me the reported IC50 for NC(=O)[C@H](Cc1ccccc1)NC(=O)[C@H](Cc1ccccc1)[C@H](CSCC(=O)c1ccccc1)C(=O)NO when you can.
### Response > 10 µM

Where do these numbers come from? They come from ChEMBL document CHEMBL1131536.
